# credit: PubChem BioAssay (NCI)

Tested on: SF-539 CNS
Assay: NCI-60 one-dose screen, 48 h
Conditions: 10 µM
This is part of a sample that, as a whole, favours compounds with a hit. Of some 83,000 tested, about 20% had one in any assay. Calls of active or inactive are those of the source. Rule for the calls: active = growth percent below 10; inactive = the rest.
Classes used: YES (active), NO (inactive)

Compound: CCCCC(CC)COC(C)=O (configuration not stated)
Class label: NO
//
Compound: OC(c1ccccn1)C(O)c1ccccn1 (configuration not stated)
Class label: NO
//
Compound: c1cc[n+](C2c3ccccc3C([n+]3ccccc3)c3ccccc32)cc1 (configuration not stated)
Class label: NO
//
Compound: CC(=O)OC(C(=O)O)c1ccccc1 (configuration not stated)
Class label: NO
//
Compound: O=C(CCl)Nc1ccc2c(c1)C(=O)c1ccc(NC(=O)CCl)cc1C2=O
Class label: YES
//
Compound: Cc1cc(N2CCC(N3CCCC3)CC2)nc(/N=C(\N)Nc2ccc(Cl)c(Cl)c2)n1
Class label: YES
//
Compound: CC(=O)/C(Cc1ccccc1)=N/O
Class label: NO
//
Compound: O=C1Cc2cc(O)ccc2O1
Class label: NO
//
Compound: COC(=O)/C=C/C(=O)NC(N)=O
Class label: NO
//
Compound: CCCCC1(CC)COC(CCC)OC1 (configuration not stated)
Class label: NO
//
Compound: CC1(C)/C(=C\CO)C2CCC1C2 (configuration not stated)
Class label: NO
//
Compound: O=[N+]([O-])c1ccccc1N=Nc1ccc(O)cc1O
Class label: NO
//
Compound: O=c1cc(-c2ccccc2)[nH]c2c1CCCC2
Class label: YES
//
Compound: CCC(C)(O)c1ccc(C)cc1 (configuration not stated)
Class label: NO
//
Compound: Clc1ccc(-c2n[nH]c3c2Cc2ccccc2-3)cc1Cl
Class label: NO
//
Compound: N#CSc1cc(S(N)(=O)=O)ccc1N
Class label: NO
//
Compound: COC(=O)Nc1cccc(Cl)c1OC
Class label: NO
//
Compound: CN(c1ccccc1)c1ncnc2c1ncn2C
Class label: NO
//
Compound: CCCCC(=O)c1ccc(OC)cc1
Class label: NO
//
Compound: Nc1ccc(NC(=O)c2cccc(N)c2)cc1
Class label: NO
//
Compound: C#Cc1cccc(NC(=O)c2ccc(Cl)cc2Cl)c1
Class label: NO
//
Compound: COCCOC(=O)c1ccc(C(C)C)cc1
Class label: NO
//
Compound: CC(C)OC(=O)c1cc(NC(=S)OC(C)C)ccc1Cl
Class label: NO
//
Compound: O=C(NN=C1CCCCC1)C(=O)NN=C1CCCCC1
Class label: NO
//
Compound: OC1OC(COC(c2ccccc2)(c2ccccc2)c2ccccc2)C(O)C(O)C1O (configuration not stated)
Class label: NO
//
Compound: O=S(=O)(O)c1cc(O)c2c(N=Cc3ccccc3O)c(S(=O)(=O)O)ccc2c1
Class label: NO
//
Compound: CCOC(=O)/C(=C/c1ccc(OC)cc1)N(CC)CC
Class label: NO
